Parameter: solubility. Scope: all listed entries.
Assay: Solubility study in phosphate buffer solution
Assay type: physicochemical
Conditions: aqueous buffer
parameter: solubility

compound: NC(=S)N/N=C/c1ncccc1N
parameter: solubility
test_result: < 300 µg/mL
//
compound: COc1ccc(-c2nc(C(C)Sc3nc(N)cc(N)n3)c(C)s2)cc1OCCNS(C)(=O)=O (centres unmarked)
parameter: solubility
test_result: < 300 µg/mL

====

System: leukemia cell growth
Test: IC50 (cytotoxicity assay) of RNR inhibitors, Table 1
Format: cell-based
Details: cell type dependent; range printed with two units (μM to mM)
parameter: IC50

smiles_repr: Cc1cn([C@H]2C[C@H](O)[C@@H](CO)O2)c(=O)[nH]c1=O
test_result: 50 to 5000 µM

meta.source: patent US20190000850A1
